# Test system: Salmonella TA104
# ASSAY_DETAILS: Salmonella plate-incorporation mutagenicity assay, strain TA104, with S9 mix
# Format: cell-based
# SETUP_CONDITIONS: TA104 +S9, Test 3, 5 µg/plate; zero-dose 402/395/336

- MOLECULE: "c1ccc2c(c1)ccc1ccc3ccccc3c12 [B[c]P, Benzo[c]phenanthrene]"
  MEASURED_ON: "Salmonella TA104"
  Rev/plate: "850/824"
- MOLECULE: "O[C@@H]1C=Cc2c(ccc3ccc4sccc4c23)[C@H]1O (racemic) [P[3,4-b]T 8,9-diol]"
  MEASURED_ON: "Salmonella TA104"
  Rev/plate: "1508/1620"
- MOLECULE: "O=S1(=O)C=Cc2c1ccc1ccc3ccccc3c21 [P[3,4-b]T sulfone, Phenanthro[3,4-b]thiophene sulfone]"
  MEASURED_ON: "Salmonella TA104"
  Rev/plate: "1650/1580"
- MOLECULE: "c1ccc2c(c1)ccc1ccc3ccsc3c12 [P[4,3-b]T, Phenanthro[4,3-b]thiophene]"
  MEASURED_ON: "Salmonella TA104"
  Rev/plate: "490/505"
- MOLECULE: "O[C@@H]1C=Cc2c(ccc3ccc4ccccc4c23)[C@H]1O (racemic) [B[c]P 3,4-diol]"
  MEASURED_ON: "Salmonella TA104"
  Rev/plate: "1781/1775"
- MOLECULE: "O[C@@H]1c2ccccc2-c2c(ccc3ccsc23)[C@H]1O (racemic) [P[4,3-b]T 6,7-diol]"
  MEASURED_ON: "Salmonella TA104"
  Rev/plate: "438/407"

###

Listed compounds paired with reported Rev/plate
# Tested on: Salmonella TA100
# ASSAY_DETAILS: Salmonella plate-incorporation mutagenicity assay, strain TA100
# Type: cell-based
# SETUP_CONDITIONS: TA100 +S9, Test 1, 5 µg/plate; zero-dose 99/110/110
PARAMETER: Rev/plate (rev/plate)

- COMPOUND: "O[C@@H]1C=Cc2c(ccc3ccc4sccc4c23)[C@H]1O (racemic) [P[3,4-b]T 8,9-diol]"
  NUMERIC_RESULT: 554
- COMPOUND: "O[C@@H]1C=Cc2c(ccc3ccc4ccccc4c23)[C@H]1O (racemic) [B[c]P 3,4-diol]"
  NUMERIC_RESULT: 1002
- COMPOUND: "O[C@@H]1c2ccccc2-c2c(ccc3ccsc23)[C@H]1O (racemic) [P[4,3-b]T 6,7-diol]"
  NUMERIC_RESULT: 128

###

# System: Salmonella TA98
# ASSAY_DETAILS: Salmonella plate-incorporation mutagenicity assay, strain TA98, with S9 mix
# Assay type: cell-based
# SETUP_CONDITIONS: TA98 +S9, Test 1, 10 µg/plate; zero-dose 33/40/39
Respond with TRUE for Rev/plate values of 60 rev/plate and above, FALSE for values below.

- MOLECULE: "c1ccc2c(c1)ccc1ccc3ccccc3c12 [B[c]P, Benzo[c]phenanthrene]"
  ASSIGNED_CLASS: "FALSE"
- MOLECULE: "O[C@@H]1C=Cc2c(ccc3ccc4ccsc4c23)[C@H]1O (racemic) [P[4,3-b]T 8,9-diol]"
  ASSIGNED_CLASS: "TRUE"
- MOLECULE: "c1ccc2c(c1)ccc1ccc3sccc3c12 [P[3,4-b]T, Phenanthro[3,4,-b]thiophene]"
  ASSIGNED_CLASS: "TRUE"
- MOLECULE: "O[C@@H]1C=Cc2c(ccc3ccc4ccccc4c23)[C@H]1O (racemic) [B[c]P 3,4-diol]"
  ASSIGNED_CLASS: "TRUE"
